Measured melting point, listed per entry.

Record excerpt, results attached:
CCC1OC1CC(=O)OC(C#N)c1ccc2ccccc2c1 (stereo not shown): 60 to 61 °C
COC(C#N)c1ccc2ccccc2c1 (stereo not shown) [Compound III, Methoxynaphthalene-2-yl Acetonitrile]: 47 to 48 °C
COc1ccc2cc(C(C#N)OC(C)=O)ccc2c1 (racemic) [Compound I]: 84 to 85 °C
N#CC(OC(=O)C/C=C/c1ccccc1)c1ccc2ccccc2c1 (stereo not shown): 74 to 75 °C

Query: What does the record list as melting point for CCOC(C#N)c1ccc2ccccc2c1 (stereo not shown) [Compound IV, Ethoxynaphthalene-2-yl Acetonitrile] ?
Response: 53 to 54 °C

Query: What does the record list as melting point for CC(=O)OC(C#N)c1ccc2ccccc2c1 (racemic) ?
Response: 37 to 38 °C

Query: What does the record list as melting point for N#CC(OCc1ccccc1)c1ccc2ccccc2c1 (stereo not shown) ?
Response: 36 to 37 °C

====

# System: cytochrome P450
# method: Substrate response to P450 enzyme activity, rat microsomal enzyme preparation
# Format: biochemical, rats
# settings: with enzyme system; pH 7.6, 37° C., substrate 10 mM final concentration, average of three tests
Classify by measured Specific Activity, With Enzyme System: YES if it is equal to or exceeds 100 pmol/min/mg protein, NO if it is smaller.

Would you please look over these solved cases?
CCCCCOc1ccc2nc3ccc(=O)cc-3oc2c1 [Compound B, pentoxyresorufin, reference compound]: NO
CCOC(C#N)c1ccc2ccccc2c1 (centres unmarked) [Compound IV, Ethoxynaphthalene-2-yl Acetonitrile]: YES
CCOc1ccc2nc3ccc(=O)cc-3oc2c1 [Compound A, ethoxyresorufin, reference compound]: NO

Query: Is reported Specific Activity, With Enzyme System greater than or equal to 100 pmol/min/mg protein here: COC(C#N)c1ccc2ccccc2c1 (centres unmarked) [Compound III, Methoxynaphthalene-2-yl Acetonitrile]
Response: YES

====

# System: cytochrome P450
# method: Substrate response to P450 enzyme activity, rat microsomal enzyme preparation
# Assay type: biochemical, rats
# settings: without enzyme system; pH 7.6, 37° C., substrate 10 mM final concentration, average of three tests
Please respond with TRUE when measured Specific Activity, Without Enzyme System is strictly beneath 40 pmol/min/mg protein, and with FALSE in all other cases.

CCOc1ccc2nc3ccc(=O)cc-3oc2c1 [Compound A, ethoxyresorufin, reference compound]: FALSE
COc1ccc2cc(C(C#N)OC(=O)C3C(C=C(Cl)Cl)C3(C)C)ccc2c1 (mixture of isomers) [Compound II]: TRUE

Query: Please determine if CCCCCOc1ccc2nc3ccc(=O)cc-3oc2c1 [Compound B, pentoxyresorufin, reference compound] is below 40 pmol/min/mg protein in terms of Specific Activity, Without Enzyme System.
Response: FALSE

Query: Please determine if COC(C#N)c1ccc2ccccc2c1 (centres unmarked) [Compound III, Methoxynaphthalene-2-yl Acetonitrile] is below 40 pmol/min/mg protein in terms of Specific Activity, Without Enzyme System.
Response: FALSE
